# credit: the supplement of paper PMC10567573

B1: RIPK4 (parent)
chain: AAWQGHLPIVKLLAKQPGVSVNAQ

variants of: B1; assay: protein stability index of a GFP-peptide fusion (GPS, HEK-293T) (PSI 1-6); higher = more stable; conditions: c terminus: a fixed tail appended;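 also: lentivirally expressed fusions sorted by FACS into six bins by GFP to DsRed ratio, PSI derived from sequencing read proportions per bin multiplied by bin number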
Catalogue of variants with associated protein stability index
Give only the figure.

ALTERATION	REPORTED_VALUE
G5Q	2.44
A23G	2.54
S20G	2.63
Q24Y	1.5

Please find the next variant below.
Give protein stability index for I9P
3.45
